Values from paper PMC9482650

# assayTarget: NHERF2_2, Q15599
# Sequence (Q15599 142-238): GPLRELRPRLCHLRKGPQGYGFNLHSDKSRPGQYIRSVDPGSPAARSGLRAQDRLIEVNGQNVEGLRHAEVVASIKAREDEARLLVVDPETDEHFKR
# testSummary: holdup assay
# Parameters: key: below the threshold = too weak to quantify, mostly under pKd 3.1 to 4
# testContext: plain residues with an end cap or a label only (N-terminal biotin on a linker: ado-ado)
measurementLabel: pKd

[[record]]
binder = "GSQSQVETEA [FKBP4, Q02790]"
observedmeasurement = "below the threshold"

[[record]]
binder = "KEKASTETEC [TRPM1, Q7Z4N2]"
observedmeasurement = "below the threshold"

[[record]]
binder = "SQPLLVHDDV [KIT, P10721]"
observedmeasurement = "below the threshold"

[[record]]
binder = "EKPIDSETKM [SLC1A3, P43003]"
observedmeasurement = 4.47

[[record]]
binder = "IQISELETNV [SLC1A7, O00341]"
observedmeasurement = 3.56

[[record]]
binder = "QLGSPTADLA [SIPA1, Q96FS4]"
observedmeasurement = "below the threshold"

[[record]]
binder = "AHGSTRDQSI [KCNB1, Q14721]"
observedmeasurement = "below the threshold"

[[record]]
binder = "SKQFDKNAYV [CLDN10, P78369]"
observedmeasurement = "below the threshold"

